- Tested on: Saccharomyces cerevisiae
- Method Summary: protein stability index of tFT-peptide fusion (C-terminal peptide) (PSI (0-1 scale)); higher = more stable (slower turnover)
- Condition Context: genetic background: das1 deletion; temperature: 30 C
Each entry below carries its reported protein stability index.
Property Name: protein stability index

>>> obs_value("LLVKFTFLIIFT")
0.191
>>> obs_value("VCLLFRFCCWFW")
0.305
>>> obs_value("IKTKGRYKKQRT")
0.679
>>> obs_value("VWLFCLSRLYLL")
0.38
>>> obs_value("GKVGGRMWVWRV")
0.63
>>> obs_value("GVWSLDWFLLVW")
0.158
>>> obs_value("AITLPMCPLLLR")
0.165
>>> obs_value("CVGRPIALAVRT")
0.375
>>> obs_value("FFSCFFFSVLYR")
0.302
>>> obs_value("GLVVMFVIAGGG")
0.284
>>> obs_value("VHHAFLPYTLVR")
0.375
>>> obs_value("SPAIRAILAPAG")
0.404
>>> obs_value("LLFLWVLFLPFA")
0.346
>>> obs_value("VYCQRFMLLFTP")
0.459
>>> obs_value("RPNTFRTRAKAL")
0.619
>>> obs_value("RVVILFVFLVYV")
0.258
>>> obs_value("FFFFFLLFFLRV")
0.303
>>> obs_value("CFFPLFLCTAFC")
0.394
>>> obs_value("VCTFLLVSFFLS")
0.237
>>> obs_value("FSSWPFFSFYLS")
0.617
>>> obs_value("FFCSLIISRFLL")
0.511
>>> obs_value("CVYGILLLVDVR")
0.106
>>> obs_value("LRSVVFFCRTLL")
0.623
>>> obs_value("GVVCWVVVFGGW")
0.281

---

- Tested on: Saccharomyces cerevisiae
- Method Summary: protein stability index of tFT-peptide fusion (C-terminal peptide) (PSI (0-1 scale)); higher = more stable (slower turnover)
- Condition Context: genetic background: das1 deletion; temperature: 30 C
Each entry below carries its reported protein stability index.
Property Name: protein stability index

>>> obs_value("MPGGMPGMPGMM [HSP60 C-terminal 12 aa]")
0.7
>>> obs_value("VREYNKYCEAIL [VPS13 C-terminal 12 aa]")
0.687
>>> obs_value("LQTMSFLMNHLI [YJL032W C-terminal 12 aa]")
0.66
>>> obs_value("LSAETGIRGEGE [YIL100W C-terminal 12 aa]")
0.685
>>> obs_value("SIPGITGRAQIS [ORM1 C-terminal 12 aa]")
0.698

---

- Test system: Saccharomyces cerevisiae
- Method Summary: protein stability index of tFT-peptide fusion (C-terminal peptide) (PSI (0-1 scale)); higher = more stable (slower turnover)
- Condition Context: genetic background: das1 deletion; temperature: 37 C
Please mark rule met if the recorded protein stability index is equal to or greater than 0.5, and rule not met if it falls below.

>>> label_class("RWCLWGTRVWVS")
"rule met"
>>> label_class("RLMVHQHTIPVR")
"rule met"
>>> label_class("DMWYLLWRVCYI")
"rule met"
>>> label_class("VYLVLRCGSVLV")
"rule met"
>>> label_class("IWIRLGSENTVI")
"rule met"
>>> label_class("LFRFVFLLFGFW")
"rule met"
>>> label_class("SRGKMTIVSNQI")
"rule met"
>>> label_class("EWRPYKRNKQSS")
"rule met"
>>> label_class("GPFVRSALIFIF")
"rule met"
>>> label_class("LFLVVVVRAGGF")
"rule not met"
>>> label_class("SRSVLLCFCWLC")
"rule met"
>>> label_class("ASGVFSRLVLVS")
"rule not met"
>>> label_class("SGPNASRFYAPI")
"rule met"
>>> label_class("FFCFFWLFHWFG")
"rule met"
>>> label_class("WGVVMVCVVFGL")
"rule not met"
>>> label_class("LCTCFLVLLLWC")
"rule not met"
>>> label_class("PPPRLPLLSCSQ")
"rule met"
>>> label_class("GVFVWVVFVCTM")
"rule not met"
>>> label_class("LVLGLYGVWLVV")
"rule not met"
>>> label_class("VPGPSPPRFTQR")
"rule met"
>>> label_class("ACLVAVWRWVFV")
"rule not met"
>>> label_class("ILISVNRVVLYC")
"rule not met"
>>> label_class("TKDFVIKKTKIS")
"rule met"
>>> label_class("LASWVVFIWFLW")
"rule not met"
>>> label_class("RFYLFLFFVRST")
"rule met"
>>> label_class("ILFIVSSCGCVG")
"rule met"
>>> label_class("GWIFFYFTWFVG")
"rule not met"
>>> label_class("WFVCSGVYGSVM")
"rule met"
>>> label_class("FSYFFIFFYMVC")
"rule not met"
>>> label_class("FVLFSIFHFFLW")
"rule met"
>>> label_class("VLFFLVTSSVYF")
"rule not met"
>>> label_class("FFLRFGLFLFTL")
"rule met"
>>> label_class("PPPSRRLTLRLA")
"rule met"
>>> label_class("FYIWFFRLIYFF")
"rule met"
>>> label_class("YVWPKRRGLRVA")
"rule met"
>>> label_class("GSLLWSGWSTCY")
"rule met"
>>> label_class("FYTYILTVAEAL")
"rule met"
>>> label_class("WLALSFFSFFFC")
"rule met"
>>> label_class("SCGVYVVFVLVE")
"rule not met"
>>> label_class("FLLSFFGLVFFW")
"rule not met"
>>> label_class("LGVVLFCFRFCR")
"rule met"
>>> label_class("RRFKKTEIIKNN")
"rule met"
>>> label_class("LLISPFLFLLVC")
"rule not met"
>>> label_class("IGLSIWSVVSAL")
"rule met"
>>> label_class("VCLFFFGYWCCL")
"rule met"
>>> label_class("LVMYRSALIRGH")
"rule met"
>>> label_class("VVRSIVVYTCVF")
"rule not met"
>>> label_class("GLPGYAWGRSGG")
"rule met"
>>> label_class("FIVVSFCFFLFF")
"rule not met"
>>> label_class("VSVFWVFLLVAG")
"rule not met"
>>> label_class("YSCFFFLFSFFF")
"rule met"
>>> label_class("LLFLWVLFLPFA")
"rule met"
>>> label_class("FFFLVRLCRLCV")
"rule met"
>>> label_class("VFFIFFFAFLFF")
"rule not met"
>>> label_class("IMWCSSVSEVQW")
"rule met"
>>> label_class("WLFTSVTVFTFL")
"rule not met"

---

- Tested on: Saccharomyces cerevisiae
- Method Summary: protein stability index of tFT-peptide fusion (C-terminal peptide) (PSI (0-1 scale)); higher = more stable (slower turnover)
- Condition Context: genetic background: wild type; temperature: 37 C
Each entry below carries its reported protein stability index.
Property Name: protein stability index

>>> obs_value("YTPPISRLLIFT")
0.494
>>> obs_value("PPWRPVALLLLA")
0.117
>>> obs_value("RLLCLARMRGLH")
0.579
>>> obs_value("IMWCSSVSEVQW")
0.502
>>> obs_value("VVWLFGVSWCWL")
0.518
>>> obs_value("LLAVIVWIVPPA")
0.39
>>> obs_value("QCKHIVRKIKLH")
0.147
>>> obs_value("YPRLVGGCWFRL")
0.603
>>> obs_value("RWCLWGTRVWVS")
0.153
>>> obs_value("WCCCVSGFVWWM")
0.602
>>> obs_value("VVGVLLLYLNPF")
0.525
>>> obs_value("DMWYLLWRVCYI")
0.56
>>> obs_value("SPAIRAILAPAG")
0.532
>>> obs_value("EQMRRYILVSYV")
0.426
>>> obs_value("GVSFLFVGVSLV")
0.523
>>> obs_value("VCTFLLVSFFLS")
0.33
>>> obs_value("PSTLVITVVITK")
0.389
>>> obs_value("VHHAFLPYTLVR")
0.571
>>> obs_value("PPPSRRLTLRLA")
0.397
>>> obs_value("RSKKIFLTKKYS")
0.395
>>> obs_value("CVLLRPGFLVLV")
0.216
>>> obs_value("GKVGGRMWVWRV")
0.241
>>> obs_value("LGATYSVQLYVS")
0.0856

---

- Test system: Saccharomyces cerevisiae
- Method Summary: protein stability index of tFT-peptide fusion (C-terminal peptide) (PSI (0-1 scale)); higher = more stable (slower turnover)
- Condition Context: genetic background: wild type; temperature: 30 C
Each entry below carries its reported protein stability index.
Property Name: protein stability index

>>> obs_value("GDSSRVGPVGRA")
0.714
>>> obs_value("LVNLESRAGAIR")
0.713
>>> obs_value("SRPPLLPTPPPS")
0.701
>>> obs_value("VIVKNINKNTQI")
0.717
>>> obs_value("KKQKKQKKKSHK")
0.715
>>> obs_value("SNACHTTFGDPI")
0.719
